# test-protocol: Identification of proteins required for the processing of the EWS-FLI1 nascent transcript;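 further: robust z of luciferase light less the median z of siRNAs with the same seed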
# experimental-parameters: TC32 Ewing sarcoma NR0B1-luc vs CMV-luc, 48 h; screened at 20 nM (by protocol)
Over roughly 59,000 sequences, the read-out has its median near -0.00055; the lowest 2% begin near -2. The entries come from a sample that favours the lowest values as a whole.
I'd be grateful if you could share measured seed-corrected z-score for these entries.
Give bare numbers.

UCUGUGAGCAGUUUCCACU against SOX21; -2.74
UAAGAAAAUAGGGAGGCCG against H1F0; 0.96

Go through the items and report each one's seed-corrected z-score.
1. UAAGUUCACUGUUCCAUAU against EDEM2
2. UGGAUUAGCAUGACAGACC against COPB1
3. UAAAGAUUACCUGAGACCG against FBXO36
4. UGAGGUACAGUGAACAAGG against TMEM110
5. UUCUGGUUUGUUUUCAGGC against BAG3
6. UCUGUGUAGCUCGGACACC against OR7E24
7. UUAGGGUCAGGAGCAGACA against CYP2F1
8. UACGCUCCAACCAUCAUAG against KIAA0368

Solution:
1. 0.761
2. -2.98
3. 0.489
4. -0.57
5. -2.98
6. -0.966
7. -0.167
8. -0.0559

Go through the items and report each one's seed-corrected z-score.
1. UGAGUUUCCACUUCCAGCC against UBQLN4
2. AACUUGGUAGCGGCUUUGG against CDHR1
3. UCUCCUUUUAGCAUGAUCC against SNRPE
4. UACAGUAAUAGUGAGGCAG against GYPB
5. UCAGGUUCUUCCGUAGCUG against PHF21A
6. UAAUCUAAUCCUUCUAAAG against PCDHGA7
7. AAAGACUCCAUAUAGACGG against ROR1
8. UCACGUACAAGAGCACUCG against GRHL2

Solution:
[-2.2, -0.12, -2.15, 2.32, -0.312, 1.3, -0.522, 0.132]

Exercise: Query seed-corrected z-score for UACUGGUCAAUCGCUGUUC against CEP192
Solution: -0.996

* * *

# test-protocol: Identification of proteins required for the processing of the EWS-FLI1 nascent transcript;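 further: robust z of luciferase light less the median z of siRNAs with the same seed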
# experimental-parameters: TC32 Ewing sarcoma NR0B1-luc vs CMV-luc (EWS-FLI1 target promoter against control promoter), 48 h; screened at 20 nM (by protocol)
Over roughly 59,000 sequences, the read-out has its median near -0.00055; the lowest 2% begin near -2. Shown is part of a subset that was picked to be rich in the lowest values.
Class boundaries, taken from values of seed-corrected z-score, are as follows: one: < -1; two: ≥ -1 and < 0.2; three: ≥ 0.2

Please review the entries below; each comes with its answer.
UUACAGGUAGCGGCAAGCA against SP8; three
UACUGCUUCGUAUCUGUCC against PIH1D2; one
UGUAUUUCCACGCGUGAGG against ZDHHC11; two

Exercise: Band for the recorded seed-corrected z-score of UGAGUUCCAGGUCUUAUGC against DEFB110 ?
Solution: two

Exercise: Band for the recorded seed-corrected z-score of AUAGAAUCUAGGGAAAUAG against HBD ?
Solution: three

Exercise: Band for the recorded seed-corrected z-score of AACACUUACGCAGUUCUUG against MTCP1 ?
Solution: two

Exercise: Band for the recorded seed-corrected z-score of AGAGUUCAAAUGUAUUGUC against KLHL21 ?
Solution: one

Exercise: Band for the recorded seed-corrected z-score of UCCCAUUCCACUGCUACUG against RBMX ?
Solution: one

Exercise: Band for the recorded seed-corrected z-score of UAGGCAUCCGUAUCCCUGC against FAM131B ?
Solution: three
